# Kd annotations
Molecular target: T1, RBD (BA.4/5) (SARS-CoV-2, Omicron BA.4/5, strain)
T1 construct: source: bought: Sino Biological
Experiment: SPR
Conditions: both partners purified
A number alone suffices; assume nM.

TH272 (antibody, V domains shown, IgG1 (D2:p3)) VH: QITLKESGPTLVKPTQTLTLTCTFSGFSLSTGGVSVGWIRQPPGKALEWLALIYWDDDKRYSPSLESRLTITKDTSKNLVVLTLTNMDPVDTATYYCAHKTIPTIFDYWGQGTLVTVSS VL: QSALTQPASVSGSPGQSITISCTATSSDVGAYQYVSWYQQYPGKAPKLMIYEVSKRPSGVSNRFSGSKSGNTASLTISGLQAEDDAYYYCNSYTTSSVVFGGGTKLTVL	0.045
TH003 (antibody, V domains shown, IgG1 (D2:p3)) VH: EVRLLESGGGLVQPGGSLRLSCAASGFTFNDYAMSWVRQAPGEGLEWVSTISYSGGSTYYADSVKGRFTISRDNSKNMLYLQMNSLRAEDTALYYCANGVATADWYFDLWGRGTLVTVSS VL: QSALTQPRSVSGSPGQSVTISCTGTSSDVGGYNYVSWFQHHPGKAPKLMIYDVTDRPSGVPDRFSGSKSGNTASLTISGLQAEDAADYYCCSYAGTYTVFGGGTKLTVL	0.484
TH027 (antibody, V domains shown, IgG1 (D2:p3)) VH: QITLKESGLTLVRPTQTLTLTCTFSGFSLINSGVGVGWIRQPPGKALEWLALIYWDDDKRYNPSLRSRLTISKATSKNQVVLTMTNMDPVDTATYYCTHRGPGHNTPIYFEFWGQGALVTVSS VL: QSVLTQSPSASGTPGQRVTISCSGSRSNIGSNFVYWFHQLPGTAPKLLIHSNDQRPSGVPDRFSGSNSGTSASLAISGLRSEDEADYYCAAWDDSLSSWVFGGGTKLTVL	0.752

API: the following record is the query input.
Can you share its Kd? I mean this binder: TH236 (antibody, V domains shown, IgG1 (D2:p3)) VH: QVQLVESGGGLVKPGGSLRLSCAASGFMISDSYMNWIRQPPGKGLEWVSYISSNGYAIYYGDSVKGRFTISRDNAKNFLYLQMNSLRVEDTAVYYCAREQPGGYYDSSGYRLDPWGQGILVTVSS VL: QSALTQPASVSGSPGQSITISCTGTSSDVGGYNYVSWYQQHPGKAPKLMIYDVSNRPSGVSNRFSGSKSGNTASLTISGLQAEDEADYYCSSYTSSSTLYVFGTGTKVTVL
0.621
